- Run Description: Caco-2 cell permeability
- Condition Label: human
In this section, each of the compounds is paired with its reported Papp.

# Compound, Measure Unit, Papp
records = [
    ("N#C[C@@H]1CSCN1C(=O)CNC(=O)c1ccnc2ccc(N3C4CCC3COC4)cc12", "×10⁻⁶ cm/s", 8.6),
    ("CO[C@@H]1CN(c2ccc3nccc(C(=O)NCC(=O)N4CSC[C@H]4C#N)c3c2)[C@H]1C", "×10⁻⁶ cm/s", 15),
    ("CC(=O)N1CC2(C1)CN(c1ccc3nccc(C(=O)NCC(=O)N4CSC[C@H]4C#N)c3c1)C2", "×10⁻⁶ cm/s", 0.1),
    ("CC1(CS(C)(=O)=O)CN(c2ccc3nccc(C(=O)NCC(=O)N4CSC[C@H]4C#N)c3c2)C1", "×10⁻⁶ cm/s", 0.28),
    ("COCC1(C)CN(c2ccc3nccc(C(=O)NCC(=O)N4CSC[C@H]4C#N)c3c2)C1", "×10⁻⁶ cm/s", 26),
    ("N#C[C@@H]1CSCN1C(=O)CNC(=O)c1ccnc2ccc(N3CCC4(CC3)OCCO4)cc12", "×10⁻⁶ cm/s", 0.9),
    ("CO[C@H]1CCCN(c2ccc3nccc(C(=O)NCC(=O)N4CSC[C@H]4C#N)c3c2)C1 (mixture of isomers)", "×10⁻⁶ cm/s", 16),
]
